system: Arginase-2, mitochondrial (Homo sapiens) (UniProt P78540)
Sequence (P78540 whole entry): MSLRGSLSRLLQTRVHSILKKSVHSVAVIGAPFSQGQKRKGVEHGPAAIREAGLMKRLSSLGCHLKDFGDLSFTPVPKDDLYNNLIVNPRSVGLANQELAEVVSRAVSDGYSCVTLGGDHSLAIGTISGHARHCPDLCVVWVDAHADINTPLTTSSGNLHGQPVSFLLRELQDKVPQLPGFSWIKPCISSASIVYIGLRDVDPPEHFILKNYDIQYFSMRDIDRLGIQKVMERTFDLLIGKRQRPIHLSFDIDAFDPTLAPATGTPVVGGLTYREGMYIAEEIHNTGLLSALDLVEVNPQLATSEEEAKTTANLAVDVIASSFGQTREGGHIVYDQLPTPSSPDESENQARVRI
experimentalDetails: in vitro enzyme assay to detect the production of urea directly proportional to the activity of Arginase II; further: in the data most compounds retested in dose-response had high values
Assay type: functional
Set-up: scale not given: direction of the effect not stated beside the values
studyConditions: 33.3 µM
readout: Percent Effect (%)
One number for each entry, in %.

# annotated cases, reported Percent Effect shown
> print(dat)
                                   molecule  outputunit  reading
1      Cc1ccc(S(=O)(=O)Nc2ccc(=O)n(C)c2)cc1           %     4.18
2           N#Cc1ccc(OCCCN2CCc3cncnc3C2)cc1           %    -3.04
3  NC(=O)C1CCN(C(=O)c2ccn(-c3ccc(F)cc3)n2)C1 (stereo not drawn)           %     4.25
4  CN(Cc1nc(N)c2ccccc2n1)CC1CCCN1c1cccnn1 (stereo not drawn)           %    -2.32
5  O=C(c1cc(=O)[nH]c(=O)[nH]1)N1CCCCC1c1nc2cc(F)ccc2[nH]1 (stereo not drawn)           %     3.97

Give Percent Effect for all molecules that follow.
1. Cn1c(C(F)(F)F)nn(CCNC(=O)c2cnc3ccccc3n2)c1=O
2. Cc1cc(C[C@@H]2COC[C@@H]2NC(=O)Cn2c(=O)oc3ccccc32)on1
3. Cc1noc(C)c1-c1cncc(C2CCCN2Cc2cncnc2)n1 (stereo not drawn)
4. Cc1nnc2n1CCN(Cc1ncc(-c3ccc(Cl)cc3)o1)C2
5. FC(F)(F)c1cc(N2CCc3ncnc(NC4CC4)c3CC2)ncn1
6. COc1cc(CN(C(=O)Nc2cccnc2OC)C2CC2)ccc1O

0.909
8.64
1.63
2.3
-57.5
-0.712

Give Percent Effect for all molecules that follow.
1. COc1ccc(Cl)cc1NCC(=O)NCCNc1cnccn1
2. COc1ccc(CN2CCOC3(CCCN(c4nnc(C)o4)C3)C2)cc1 (stereo not drawn)
3. NCC(c1ccccc1)N1CCc2sccc2C1 (stereo not drawn)
4. Cc1nn(CC(C)C)c(N(C)C)c1CNCc1cccnc1N(C)C
5. CCn1ccnc1CN1CCN(CC(=O)NC(C)(C#N)C2CC2)CC1 (stereo not drawn)

-2.4
2
-5.92
-6.41
-3.45

* * *

Test system: Trypanosoma cruzi
experimentalDetails: Trypanosoma cruzi phosphomannomutase and mannose-1-phosphate guanylyltransferase assay
Assay type: functional
Set-up: scale not given: direction of the effect not stated beside the values
studyConditions: 10 µM
readout: Percent Effect

# annotated cases, reported Percent Effect shown
> print(dat)
                                   compound  reading
1  Cc1cccc(-c2[nH]ncc2CNCC2CCN(CC(C)O)CC2)c1 (stereo not drawn)    1.42%
2  CCOCC(O)CN1CCN(C(=O)c2cc(F)ccc2C)CC1 (stereo not drawn)   0.187%
3  CCCc1nc(CN2CCOC(Cn3cncn3)C2)no1 (stereo not drawn)   -1.74%
4  CNC(=O)NC(=O)CN1CCC(c2cccc(F)c2)C1 (stereo not drawn)   -2.82%
5  Cc1cccc(C2(CNC(=O)CCNS(C)(=O)=O)CCCC2)c1    4.44%

Give Percent Effect for all compounds that follow.
1. Cc1nc[nH]c1CN1C[C@@H]2CC[C@H](C1)N(C(=O)CCc1cnn(C)c1)C2
2. Cc1cc(CN2CCN(C(C)c3nc(C4CC4)no3)CC2)no1 (stereo not drawn)
3. Cc1nc(CNCc2c(C)nn(C)c2N2CCOCC2)cs1
4. CN(C)C(=O)CC1CC2(CCNCC2)c2cc(F)ccc21 (stereo not drawn)
5. CC(C)Nc1ncc(CN2C[C@@H](CN3CCC(O)CC3)[C@@H](CO)C2)cn1
6. O=C(c1ccn[nH]1)N1CCCC(n2cncn2)C1 (stereo not drawn)
7. CCc1nccn1C1CCCN(C(=O)c2cn3cccnc3n2)C1 (stereo not drawn)

4.96%
-1.33%
3.95%
-6.35%
2.43%
-0.718%
-2.17%

Give Percent Effect for all compounds that follow.
1. Cc1cccc(CN2CC3(CCNCC3)OCC2=O)n1
2. O=C(N[C@@H]1CCNC[C@H]1O)c1ccc(F)c(Cl)c1
3. CCc1cc(NC2CCN(S(C)(=O)=O)CC2)n2nc(C)c(C)c2n1
4. COc1ccc(Cc2nnc(SC)o2)cc1OC

1. 1.37%
2. -3.09%
3. -4.37%
4. 6.72%

Give Percent Effect for all compounds that follow.
1. NCC(c1ccccc1)N1CCc2sccc2C1 (stereo not drawn)
2. CS(=O)(=O)NC1CCN(C(=O)NCCc2ccccc2F)CC1
3. N#Cc1ccccc1CN1CCCCC1Cn1cncn1 (stereo not drawn)
4. O=C(Cn1c(=O)n(Cc2ccco2)c2ncccc21)Nc1ccccn1
5. NC(=O)c1cc(C2CCCN(C(=O)CCc3ccsc3)C2)n[nH]1 (stereo not drawn)
6. CCOC(=O)c1sc(NC(=O)CN(C)S(C)(=O)=O)c(C#N)c1C
7. NC(=O)CN1CC2(CCC1=O)CCN(Cc1cc(F)ccc1Cl)CC2
8. O=S1(=O)COCCN1Cc1ccc(Cl)c(F)c1

["-3.41%", "2.14%", "-5.38%", "-6.13%", "-5.43%", "-1.87%", "7.5%", "3.28%"]

* * *

Species on record: Homo sapiens
experimentalDetails: To identify inhibition of the IFN signalling (Jak-Stat) pathway via expression of an eGFP reporter gene under the control of an IFN-stimulated response element (ISRE) containing MxA promoter.
Format: functional
Set-up: scale not given: direction of the effect not stated beside the values
studyConditions: 30 µM
readout: Percent Effect (%)
Numbers only, in %.

> print(dat)
                                   molecule  outputunit  reading
1         Cc1cnnn1Cc1ncn2c1CN(Cc1cccs1)CCC2           %     14.8
2   Cn1cc(N2CC3(CCN(Cc4cccs4)CC3)OCC2=O)cn1           %     2.59
3  CNS(=O)(=O)Cc1ccc(CNC(=O)Nc2cn[nH]c2)cc1           %     18.9

Give Percent Effect for all molecules that follow.
1. CCOc1cccc2c1OCC(C(=O)NS(=O)(=O)c1ccc(C)s1)=C2
2. CNC(=O)c1cc2c(nc1NC(C)C)CCN(C(=O)NC(C)C)CC2
3. CNC(=O)CC1CCN(Cc2nc(-c3ccc(SC)cc3)oc2C)CC1
4. CCc1c(C)nc2cc(C3CCN(Cc4ccccc4F)C3)nn2c1O (stereo not drawn)

5.57
-8.82
13.2
17

Give Percent Effect for all molecules that follow.
1. Cc1ccc(C(=O)N2CCC3(CCN(C(=O)c4cccnc4)C3)CC2)o1
2. Cn1cc(CNC2CCCN(Cc3noc(C4CC4)n3)C2)cn1 (stereo not drawn)
3. O=C(CN1CCCC1Cn1cncn1)Nc1cccnc1 (stereo not drawn)
4. O=C(CN(Cc1ccccc1)CC1CCOCC1)Nc1nccs1
5. CCCc1nc(CN2CCCC(Cn3cncn3)C2)no1 (stereo not drawn)
6. COc1c(CNCc2cccc(CS(C)(=O)=O)c2)c(C)nn1C

[-16.6, 28.1, -11.7, -3.27, 4.36, 4.32]

Give Percent Effect for all molecules that follow.
1. COc1cc(N2CC[C@H](O)[C@@H]2Cc2cnn(C)c2)ncn1
2. CC(=O)N1CC(=O)N(c2cnn(C)c2)CC12CCN(Cc1ccoc1)C2 (stereo not drawn)
3. Cc1nn(C)c(N2CCOCC2)c1CNC1CCOc2ccccc21 (stereo not drawn)
4. COc1ccc(F)c(CN2CCC(c3cc(O)nc(C)n3)C2)c1 (stereo not drawn)

1. -8.64
2. 5.16
3. -11.4
4. 11.7

Give Percent Effect for all molecules that follow.
1. COc1c(C2CCCN2C(=O)c2ccc(Cl)o2)c(C)nn1C (stereo not drawn)
2. Cc1cccc(CN2CC3(CCNCC3)OCC2=O)n1
3. Cc1nc[nH]c1CN(C)CC1CCCN(CCc2ccc(Cl)cc2)C1 (stereo not drawn)
4. Cc1cc(=O)n2ncnc2n1CC(O)c1cc(F)ccc1F (stereo not drawn)
5. CN(C)C(CNS(=O)(=O)c1ccc(F)cc1F)c1cccn1C (stereo not drawn)
6. CCN(Cc1ccc2c(c1)OCCO2)C(=O)NCc1cc[nH]n1

-2.68
2.26
61.3
6.3
13.6
-7.15

Give Percent Effect for all molecules that follow.
1. O=C(c1ccsc1)N1CCOC2(CCN(Cc3cccnc3)CC2)C1
2. CCOc1ccc(Cl)c(C(=O)N2CCN(c3cnccn3)CC2)n1
3. Cc1cc(CNCc2c(C)nn(C)c2N2CCOCC2)no1

1. -17
2. 17.5
3. -11.7

Give Percent Effect for all molecules that follow.
1. Cc1cccc(NC2CCN(C(=O)Nc3cccc4[nH]ccc34)CC2)n1
2. Cc1cc(CC(=O)N(CC2CN(C)CCO2)c2nccs2)no1 (stereo not drawn)
3. Cc1ccc(C(=O)N2CCSCC2)cc1NC(=O)NCCO
4. Cn1cc(CN2CCn3c(CNC(=O)c4cccn4C)cnc3C2)cn1

[-7.19, -15.8, 15.2, 0.903]

Give Percent Effect for all molecules that follow.
1. COCc1cc(NCc2cc(F)ccc2F)n2nccc2n1
2. CC(C)CC(=O)N1CCCn2cnc(CN3CCCC3=O)c2C1

1: 15.9; 2: -1.05

Give Percent Effect for all molecules that follow.
1. Cc1nn(CC(=O)N2CCCCC2Cn2cccn2)c(C)c1Cl (stereo not drawn)
2. CN(C)[C@@H]1CCN(c2ncccn2)[C@H]1Cc1ccncc1
3. Cc1ccn(-c2ccccc2NCc2cccnc2C)n1
4. CC(C)c1ncc2c(n1)CN(Cc1nc(Cc3ccccc3)no1)CC2
5. CCCNC(=O)CCC(=O)Nc1ccc(-n2cncn2)c(F)c1
6. COc1cc2cc(C(=O)O)n(C)c2cc1OC
7. Cc1nc(CN2CCCC(N(C)Cc3c(C)noc3C)C2)no1 (stereo not drawn)

[7.18, -12.2, 17.4, 10.2, 29.1, -15.2, 6.79]
